# Experiment summary: Clinical test in humans, three 30-min i.v. infusions 8 hours apart, plasma PK
# Type: in vivo
# Stated conditions: human, in vivo, iv, three 30-min i.v. infusions 8 h apart, 200 μg/kg each, GM, read-out: AUC0-tau3
Ends that are not written are not given here.

>  <Substance>
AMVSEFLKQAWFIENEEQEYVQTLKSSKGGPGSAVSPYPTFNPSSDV-NH2 [Peptide 1]

>  <AUC [ng·h/mL]>
2710

$$$$

----------
# Experiment summary: Clinical test in humans, single 30-min i.v. infusion, plasma PK
# Assay type: in vivo
# Stated conditions: human, in vivo, iv, 50 ug/kg, single 30-min i.v. infusion 50 μg/kg, mean, read-out: t1/2 (converted)
Ends that are not written are not given here.

>  <Substance>
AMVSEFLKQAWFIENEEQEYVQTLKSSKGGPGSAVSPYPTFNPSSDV-NH2 [Peptide 1]

>  <Unit descriptor>
min

>  <half-life>
55.2

$$$$
